Can you tell me Population Fragmented Nuclei (%) for the items I'm about to list?
system: Fibroblast; experiment: Multiplex assay against human fibroblast; type: toxicity, cell-based; settings: 48 h, 1 µM, compound concentration 1 uM, replicate 1
Answers are plain numbers, in %.

Known results for compounds:
[Q] For CC1(COc2ccc3c(c2)ncn3-c2ccc3cccc(N4CCC(N)CC4)c3n2)COC1 , what is its reported Population Fragmented Nuclei (%)?
[A] 32

[Q] Query COc1cc(C(=O)N(CCCc2ccccc2)Cc2ccc(CC(=O)O)cc2)cc(OC)c1C next
[A] 21

Dear colleague, could you send me Population Fragmented Nuclei (%) for each of the items below? Thanks.
1. O=C(NCC(=O)N1CC[C@H](N[C@H]2CC[C@@](O)(c3ccc(-c4ncccn4)cn3)CC2)C1)c1cccc(C(F)(F)F)c1
2. CNC[C@H](O)c1ccc(O)c(O)c1 [EPINEPHRINE]
3. O=C(O)c1cc2ccccc2c(Cc2c(O)c(C(=O)O)cc3ccccc23)c1O

[A]
[26, 17, 12]

Dear colleague, could you send me Population Fragmented Nuclei (%) for each of the items below? Thanks.
1. C[C@H]1[C@H]2CC[C@H]3[C@@H]4CC=C5C[C@@H](N(C)C)CC[C@]5(C)[C@H]4CC[C@]23CN1C
2. C[C@@H]1C[C@H]2[C@@H]3CCC4=CC(=O)C=C[C@]4(C)[C@@]3(F)[C@@H](O)C[C@]2(C)[C@@]1(O)C(=O)CO

[A]
[17, 22]

Dear colleague, could you send me Population Fragmented Nuclei (%) for each of the items below? Thanks.
1. Cc1ccc(C(C)(O)c2nc3ccccc3s2)c(C)c1 (configuration not stated)
2. C[C@H](NC(=O)c1c(C(F)F)nn(C)c1Oc1cccc(C(F)(F)F)c1)c1ccc(C(=O)O)cc1
3. N[C@@]1(C(=O)O)CO[C@H]2[C@H](C(=O)O)[C@H]21
4. O=C(O)Cc1ccccc1Nc1c(Cl)cccc1Cl
5. CSCC[C@H](NC=O)C(=O)N[C@@H](CC(C)C)C(=O)N[C@@H](Cc1ccccc1)C(=O)O
6. COc1cc(NC(=O)CCN2CCC(OC(=O)Nc3ccccc3-c3ccccc3)CC2)c(Cl)cc1CNC[C@H](O)c1ccc(O)c2[nH]c(=O)ccc12
7. CCCC(CCC)C(=O)O

[A]
1. 16
2. 34
3. 22
4. 21
5. 16
6. 23
7. 18

Dear colleague, could you send me Population Fragmented Nuclei (%) for each of the items below? Thanks.
1. Cc1ccc(F)cc1C(=O)Nc1ccc(C(=O)N2Cc3cccn3Cc3ccccc32)c(Cl)c1
2. CCNC1(C(N)=O)CCN(c2ncnc3c2nc(-c2ccccc2Cl)n3-c2ccc(Cl)cc2)CC1
3. CSc1ccccc1N1CCN(CCCCCC(=O)NC2CCCc3ccccc32)CC1.Cl (configuration not stated)

[A]
1: 18; 2: 18; 3: 26

Data provenance is ChEMBL document CHEMBL5058577.
